- Method Description: Oral bioavailability in C57BL/6J mouse
- Assay type: ADME, organism-based
- Experimental Context: in vivo
Measurement Kind: bioavailability (%)

1. Cc1cc(F)c(Br)cc1NS(=O)(=O)c1ccc(NS(=O)(=O)c2cc(Cl)cc(Cl)c2)cc1CN1CCOC[C@H]1C: 93
2. COC(=O)c1cc(NS(=O)(=O)c2cc(Cl)cc(Cl)c2)ccc1S(=O)(=O)Nc1cc(Br)c(F)cc1C: 71.3

Ref: ChEMBL document CHEMBL5226318
